target entity: Muscarinic acetylcholine receptor M3 (Homo sapiens)
Sequence (P20309 whole entry): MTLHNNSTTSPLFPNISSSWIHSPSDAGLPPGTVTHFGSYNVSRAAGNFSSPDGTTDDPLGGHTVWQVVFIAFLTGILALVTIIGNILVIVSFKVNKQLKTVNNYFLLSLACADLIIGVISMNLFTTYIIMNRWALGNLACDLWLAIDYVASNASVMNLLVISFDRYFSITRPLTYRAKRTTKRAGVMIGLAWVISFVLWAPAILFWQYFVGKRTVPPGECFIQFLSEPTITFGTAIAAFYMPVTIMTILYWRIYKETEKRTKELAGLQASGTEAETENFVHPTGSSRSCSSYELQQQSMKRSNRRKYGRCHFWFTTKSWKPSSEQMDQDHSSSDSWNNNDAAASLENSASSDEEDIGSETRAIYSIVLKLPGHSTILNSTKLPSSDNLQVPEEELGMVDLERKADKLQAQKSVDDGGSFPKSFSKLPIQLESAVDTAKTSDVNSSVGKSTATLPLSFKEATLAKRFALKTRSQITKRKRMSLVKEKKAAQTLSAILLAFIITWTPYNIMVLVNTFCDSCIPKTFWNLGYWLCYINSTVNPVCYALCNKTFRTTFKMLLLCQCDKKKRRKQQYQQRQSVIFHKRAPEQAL
method summary: Binding affinity to human M3 muscarinic receptor
parameter: Ki

Which Ki is listed for CCN(CC)CC1CCCCN1CC(=O)N1c2ccccc2C(=O)Nc2cccnc21 (stereo unspecified) ?
2090 nM

###

target entity: Muscarinic acetylcholine receptor M4 (Homo sapiens)
Sequence (P08173 whole entry): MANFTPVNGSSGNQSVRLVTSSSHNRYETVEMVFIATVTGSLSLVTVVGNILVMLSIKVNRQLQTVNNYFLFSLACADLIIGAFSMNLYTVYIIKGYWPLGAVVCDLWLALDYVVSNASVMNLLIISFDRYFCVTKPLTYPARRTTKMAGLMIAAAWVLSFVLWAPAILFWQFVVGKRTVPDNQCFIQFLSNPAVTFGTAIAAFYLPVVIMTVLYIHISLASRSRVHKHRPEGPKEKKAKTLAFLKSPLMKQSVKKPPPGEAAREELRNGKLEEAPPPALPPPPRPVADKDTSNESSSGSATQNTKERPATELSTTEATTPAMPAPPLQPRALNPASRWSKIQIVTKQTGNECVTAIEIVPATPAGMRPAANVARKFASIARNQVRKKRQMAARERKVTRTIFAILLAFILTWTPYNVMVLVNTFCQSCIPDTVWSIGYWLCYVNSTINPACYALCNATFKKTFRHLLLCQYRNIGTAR
method summary: Displacement of [3H]NMS from human M4 muscarinic receptor expressed in CHO-K1 cells
Type: cell-based
parameter: pKi
Lab note: report pKi as minus log10 of the concentration in molar units, number only.

Examples with answers:
CCN1CCC(c2ccccc2)=C(C(=O)OCCc2ccc3c(c2)CCO3)C1: 4.98
CN1CCC(c2ccccc2F)=C(C(=O)OCCc2ccc3c(c2)CCO3)C1: 5.24
CN1CCC(c2ccccc2)=C(C(=O)OCCc2ccc3c(c2)CCO3)C1: 5.72

Which pKi is listed for `CCN1CCC(c2ccccc2)=C(C(=O)OCCCc2ccc(OC)cc2)C1` ?
4.94

###

Quick list: Ratio Ki per entry.
Organism: Homo sapiens
method summary: Selectivity index, ratio of Ki for human M1 muscarinic receptor to Ki for human M5 muscarinic receptor
Response field accepts a number only; no unit should be typed.

Which Ratio Ki is listed for `COc1cccc(C2=C(C(=O)OCCc3ccc4c(c3)CCO4)CN(C)CC2)c1` ?
0.9

Likewise for `Cc1cccc(CCOC(=O)C2=C(c3ccccc3)CCN(C)C2)c1` ?
3.1

Likewise for `CN1CCC(c2ccccc2)=C(C(=O)OCCCc2ccc3c(c2)CCO3)C1` ?
1.5

###

target entity: Muscarinic acetylcholine receptor M1 (Homo sapiens, UniProt P11229)
Sequence (P11229 whole entry): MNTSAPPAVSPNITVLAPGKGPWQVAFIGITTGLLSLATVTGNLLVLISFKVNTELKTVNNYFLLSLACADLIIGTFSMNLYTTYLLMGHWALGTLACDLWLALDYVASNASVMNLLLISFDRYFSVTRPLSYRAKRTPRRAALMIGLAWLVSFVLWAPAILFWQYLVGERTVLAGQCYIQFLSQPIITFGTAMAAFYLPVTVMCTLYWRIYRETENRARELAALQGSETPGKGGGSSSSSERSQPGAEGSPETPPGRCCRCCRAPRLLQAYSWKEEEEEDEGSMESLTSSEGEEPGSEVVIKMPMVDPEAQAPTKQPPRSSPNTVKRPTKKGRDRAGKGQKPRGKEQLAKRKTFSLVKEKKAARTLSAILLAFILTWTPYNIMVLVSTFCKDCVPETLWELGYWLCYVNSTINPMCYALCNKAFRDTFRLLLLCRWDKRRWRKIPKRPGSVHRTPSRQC
method summary: biochemical
Format: cell-based, CHO-K1
Quick list: Ki per entry.
Answer in µM, number only, no unit symbol.

Examples with answers:
CN1CCC(c2ccccc2)=C(C(=O)OCCc2cccc(F)c2)C1: 0.33
CCN1CCC(c2ccccc2)=C(C(=O)OCc2ccc3c(c2)OCO3)C1: 0.06

Which Ki is listed for `CN1CCC(c2ccccc2)=C(C(=O)OCCc2ccc3c(c2)CCO3)C1` ?
0.29

Likewise for `CCN1CCC(c2ccccc2)=C(C(=O)OCCc2ccc([N+](=O)[O-])cc2)C1` ?
0.81

Likewise for `COc1cccc(C2=C(C(=O)OCCc3ccc4c(c3)CCO4)CN(C)CC2)c1` ?
2.43

Likewise for `CN1CCC(c2ccccc2)=C(C(=O)OCCc2ccc(S(C)(=O)=O)cc2)C1` ?
0.51

Likewise for `Cc1cccc(CCOC(=O)C2=C(c3ccccc3)CCN(C)C2)c1` ?
0.88

###

target entity: Muscarinic acetylcholine receptor M4 (Homo sapiens)
method summary: Binding affinity to human M4 muscarinic receptor
parameter: Ki (nM)
Answer in nM, number only, no unit symbol.

Which Ki is listed for CCN(CC)CC1CCCCN1CC(=O)N1c2ccccc2C(=O)Nc2cccnc21 (stereo unspecified) [OTENZEPAD] ?
407

###

target entity: Muscarinic acetylcholine receptor M5 (Homo sapiens, UniProt P08912)
Sequence (P08912 whole entry): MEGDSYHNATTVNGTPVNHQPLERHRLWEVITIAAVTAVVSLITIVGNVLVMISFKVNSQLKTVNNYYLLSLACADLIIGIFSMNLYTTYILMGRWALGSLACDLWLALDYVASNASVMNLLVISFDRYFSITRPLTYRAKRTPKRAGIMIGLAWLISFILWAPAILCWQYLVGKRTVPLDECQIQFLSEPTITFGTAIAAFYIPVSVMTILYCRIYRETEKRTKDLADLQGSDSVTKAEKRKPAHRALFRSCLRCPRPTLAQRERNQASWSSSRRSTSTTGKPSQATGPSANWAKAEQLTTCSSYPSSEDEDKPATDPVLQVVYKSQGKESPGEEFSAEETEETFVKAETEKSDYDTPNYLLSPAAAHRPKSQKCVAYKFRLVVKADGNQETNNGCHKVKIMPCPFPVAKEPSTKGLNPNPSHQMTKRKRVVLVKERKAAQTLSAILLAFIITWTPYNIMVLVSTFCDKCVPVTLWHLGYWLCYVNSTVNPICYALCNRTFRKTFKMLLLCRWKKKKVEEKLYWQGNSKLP
parameter: Ki (µM)
Answer in µM, number only, no unit symbol.

Examples with answers:
CCN1CCC(c2ccccc2)=C(C(=O)OCc2ccc(OC)cc2)C1: 3.61
CN1CCC(C(=O)OCCc2ccc3c(c2)CCO3)=C(c2ccccc2)C1: 1.14
CCN1CCC(c2ccccc2)=C(C(=O)OCCc2ccc([N+](=O)[O-])cc2)C1: 0.44

Which Ki is listed for `CN1CCC(c2ccccc2)=C(C(=O)OCCc2cccc(F)c2)C1` ?
0.08

###

Species on record: Homo sapiens
method summary: Selectivity index, ratio of Ki for human M1 muscarinic receptor to Ki for human M5 muscarinic receptor
Quick rule for you: Ratio Ki under 4 gets Criterion met, anything else gets Criterion not met.

Answered cases to consult:
CCN1CCC(c2ccccc2)=C(C(=O)OCCc2ccc(OC)c(F)c2)C1: Criterion not met
CSc1ccc(CCOC(=O)C2=C(c3ccccc3)CCN(C)C2)cc1: Criterion met
CCN1CCC(c2ccccc2)=C(C(=O)OCc2ccc(OC)cc2)C1: Criterion met

Lab log: compare recorded Ratio Ki with 4; is it strictly lower for `COc1ccc(OCCOC(=O)C2=C(c3ccccc3)CCN(C)C2)cc1` ?
Criterion met

Likewise for `COc1ccc(CCOC(=O)C2=C(c3ccccc3)CCN(C)C2)cc1` ?
Criterion met

###

Organism: Homo sapiens
method summary: Selectivity index, ratio of Ki for human M1 muscarinic receptor to Ki for human M5 muscarinic receptor
Quick list: Ratio Ki per entry.
Response field accepts a number only; no unit should be typed.

Which Ratio Ki is listed for `CN1CCC(c2ccccc2)=C(C(=O)OCCc2ccc(S(C)(=O)=O)cc2)C1` ?
4.6

Likewise for `CCN1CCC(c2ccccc2)=C(C(=O)OCCc2ccc([N+](=O)[O-])cc2)C1` ?
1.8

Likewise for `CCN1CCC(c2ccc(F)cc2)=C(C(=O)OCCc2ccc3c(c2)CCO3)C1` ?
3.4

Likewise for `COc1ccccc1C1=C(C(=O)OCCc2ccc3c(c2)CCO3)CN(C)CC1` ?
3.5

Likewise for `CN1CCC(c2ccccc2F)=C(C(=O)OCCc2ccc3c(c2)CCO3)C1` ?
7

Likewise for `CN1CCC(c2ccccc2)=C(C(=O)OCCc2cccc(F)c2)C1` ?
4.1

Likewise for `CN1CCC(c2ccccc2)=C(C(=O)OCCc2cccc3ccccc23)C1` ?
4.8

###

Quick list: log10 Ki per entry.
target entity: Muscarinic acetylcholine receptor M5 (Homo sapiens)
Sequence (P08912 whole entry): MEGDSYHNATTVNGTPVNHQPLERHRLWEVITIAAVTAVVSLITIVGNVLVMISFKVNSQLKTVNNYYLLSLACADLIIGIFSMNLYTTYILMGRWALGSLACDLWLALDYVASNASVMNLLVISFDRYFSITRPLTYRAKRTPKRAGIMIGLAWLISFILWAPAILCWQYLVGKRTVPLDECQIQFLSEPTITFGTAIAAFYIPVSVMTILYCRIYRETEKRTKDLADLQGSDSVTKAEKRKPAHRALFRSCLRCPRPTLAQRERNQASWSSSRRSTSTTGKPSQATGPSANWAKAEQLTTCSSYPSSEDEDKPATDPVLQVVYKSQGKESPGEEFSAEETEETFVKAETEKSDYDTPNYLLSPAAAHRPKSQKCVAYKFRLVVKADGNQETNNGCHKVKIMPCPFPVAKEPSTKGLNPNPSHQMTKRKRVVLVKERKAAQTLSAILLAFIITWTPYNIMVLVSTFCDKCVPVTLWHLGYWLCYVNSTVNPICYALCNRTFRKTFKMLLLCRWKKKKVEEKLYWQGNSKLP
All values: base-10 log of Ki in µM.

COc1ccc(CCOC(=O)C2=C(c3ccccc3)CN(C)CC2)cc1OC: 0.42
CCN1CCC(c2ccccc2)=C(C(=O)OCCc2ccsc2)C1: -0.72

What reported log10 Ki corresponds to `CCN1CCC(c2ccccc2)=C(C(=O)OCCc2ccc(OC)c(F)c2)C1` on Muscarinic acetylcholine receptor M5 (Homo sapiens)?
0.39

Likewise for `Cc1cccc(CCOC(=O)C2=C(c3ccccc3)CCN(C)C2)c1` ?
-0.55

Likewise for `COc1ccc(CCCCOC(=O)C2=C(c3ccccc3)CCN(C)C2)cc1` ?
0.06

Likewise for `CCN1CCC(c2ccccc2)=C(C(=O)OCCc2ccc3c(c2)CCO3)C1` ?
-0.64

Likewise for `COc1cccc(C2=C(C(=O)OCCc3ccc4c(c3)CCO4)CN(C)CC2)c1` ?
0.43
